biological target: H1047R PIK3CA enzyme (Homo sapiens, UniProt P42336, H1047R); test: ADP-Glo Biochemical PIK3CA Kinase Assay
Sequence (P42336 whole entry H1047R): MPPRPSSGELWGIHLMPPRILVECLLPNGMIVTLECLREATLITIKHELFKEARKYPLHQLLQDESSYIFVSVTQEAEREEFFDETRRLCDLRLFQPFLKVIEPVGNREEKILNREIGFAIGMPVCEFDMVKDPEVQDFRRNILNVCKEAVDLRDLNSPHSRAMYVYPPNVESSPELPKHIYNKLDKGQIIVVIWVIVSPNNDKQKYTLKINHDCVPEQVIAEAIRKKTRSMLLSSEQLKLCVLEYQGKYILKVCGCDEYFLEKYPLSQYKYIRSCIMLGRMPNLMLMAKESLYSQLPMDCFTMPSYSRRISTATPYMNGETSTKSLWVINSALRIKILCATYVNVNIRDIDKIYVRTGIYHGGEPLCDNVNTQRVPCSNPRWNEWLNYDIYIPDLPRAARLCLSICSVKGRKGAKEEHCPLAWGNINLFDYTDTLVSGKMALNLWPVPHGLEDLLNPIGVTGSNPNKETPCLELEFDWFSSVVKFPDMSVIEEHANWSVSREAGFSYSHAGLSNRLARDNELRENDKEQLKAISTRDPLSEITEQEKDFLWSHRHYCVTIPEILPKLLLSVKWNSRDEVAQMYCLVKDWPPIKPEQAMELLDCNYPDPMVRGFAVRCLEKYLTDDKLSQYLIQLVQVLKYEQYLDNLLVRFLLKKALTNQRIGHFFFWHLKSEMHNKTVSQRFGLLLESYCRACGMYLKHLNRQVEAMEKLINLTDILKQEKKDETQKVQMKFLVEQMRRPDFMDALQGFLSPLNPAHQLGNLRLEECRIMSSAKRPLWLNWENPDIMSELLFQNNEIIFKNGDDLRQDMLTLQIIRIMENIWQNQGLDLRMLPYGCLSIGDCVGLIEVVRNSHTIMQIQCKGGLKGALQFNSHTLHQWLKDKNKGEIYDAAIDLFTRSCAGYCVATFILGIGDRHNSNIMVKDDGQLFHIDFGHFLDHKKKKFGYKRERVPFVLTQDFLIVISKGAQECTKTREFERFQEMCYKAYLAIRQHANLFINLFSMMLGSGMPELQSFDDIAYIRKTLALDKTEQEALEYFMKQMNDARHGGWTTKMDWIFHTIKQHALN
Sequence (P27986 whole entry partner): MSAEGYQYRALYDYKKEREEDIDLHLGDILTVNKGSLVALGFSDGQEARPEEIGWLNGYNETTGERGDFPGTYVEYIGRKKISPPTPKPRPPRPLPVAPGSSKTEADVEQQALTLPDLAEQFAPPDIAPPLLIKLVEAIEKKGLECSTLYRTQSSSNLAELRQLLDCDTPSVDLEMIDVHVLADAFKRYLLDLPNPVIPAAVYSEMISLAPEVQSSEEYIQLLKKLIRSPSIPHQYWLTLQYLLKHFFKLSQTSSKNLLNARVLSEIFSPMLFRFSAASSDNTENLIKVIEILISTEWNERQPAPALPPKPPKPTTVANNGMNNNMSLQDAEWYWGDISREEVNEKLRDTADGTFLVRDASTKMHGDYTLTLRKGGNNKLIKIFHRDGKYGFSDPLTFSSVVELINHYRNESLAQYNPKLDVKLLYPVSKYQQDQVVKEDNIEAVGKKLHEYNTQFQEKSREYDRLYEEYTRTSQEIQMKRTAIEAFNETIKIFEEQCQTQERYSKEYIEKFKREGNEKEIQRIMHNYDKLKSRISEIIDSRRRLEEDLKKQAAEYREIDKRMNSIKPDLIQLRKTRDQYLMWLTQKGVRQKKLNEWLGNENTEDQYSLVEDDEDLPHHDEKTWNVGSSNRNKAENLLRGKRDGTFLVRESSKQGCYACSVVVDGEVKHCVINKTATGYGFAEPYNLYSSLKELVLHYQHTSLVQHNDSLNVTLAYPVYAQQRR
pIC50: −log10 of the molar value.
QUANTITY MEASURED: pIC50

Worked examples follow.
[
  {
    "MOLECULE": "O=C(Nc1cc(Br)cc2c1C(c1cc(F)ccc1Cl)NC2=O)c1cc(F)cc2c1NCCC2 (centres unmarked)",
    "pIC50": "6.00 to 6.30"
  },
  {
    "MOLECULE": "C[C@@H](O)c1cc(-c2ccc3ncnn3c2)cc2c1[C@@H](c1cc(F)ccc1Cl)NC2=O (single isomer, unassigned)",
    "pIC50": "4.00 to 5.00"
  },
  {
    "MOLECULE": "O=C(Nc1cc(Br)cc2c1[C@@H](c1cc(Cl)ccc1Cl)NC2=O)c1cc(F)cc(C(F)(F)F)c1",
    "pIC50": "5.00 to 6.00"
  },
  {
    "MOLECULE": "O=C(Nc1cc(-n2ccccc2=O)cc2c1C(c1cc(F)ccc1Cl)NC2=O)c1cc(F)cc(C(F)(F)F)c1 (centres unmarked)",
    "pIC50": "≥ 7.00"
  },
  {
    "MOLECULE": "O=C(Nc1cc(Nc2ncco2)cc2c1C(c1cc(F)ccc1Cl)NC2=O)c1cc(F)cc(C(F)(F)F)c1 (centres unmarked)",
    "pIC50": "≥ 7.00"
  },
  {
    "MOLECULE": "O=C1NC(c2cc(F)ccc2Cl)c2c(Nc3cc(CO)c(C(F)(F)F)cn3)cccc21 (centres unmarked)",
    "pIC50": "4.00 to 5.00"
  },
  {
    "MOLECULE": "COc1ccc2scc(C(=O)Nc3cccc4c3C(c3ccccc3C)NC4=O)c2c1 (centres unmarked)",
    "pIC50": "5.00 to 6.00"
  },
  {
    "MOLECULE": "NC1CCC(C(=O)Nc2cc(-c3ccc4ncnn4c3)cc3c2C(c2cc(F)ccc2Cl)NC3=O)CC1 (centres unmarked)",
    "pIC50": "4.00 to 5.00"
  }
]

Parameter requested: pIC50. Apply to each item below.
1. O=C(Nc1cc(/N=C2/N[C@H](C(F)(F)F)CO2)cc2c1[C@@H](c1cc(F)ccc1Cl)NC2=O)c1cc(F)cc(C(F)(F)F)c1 (single isomer, unassigned)
2. COc1ccc2c(c1)CCN2C(=O)Nc1cccc2c1C(c1cc(F)ccc1Cl)NC2=O (centres unmarked)
3. O=C1NC(c2ccccc2Cl)c2c(NC(=O)c3nsc4ccccc34)cc(Cl)nc21 (centres unmarked)
4. CN=S(C)(=O)Cc1cc(NC(=O)c2cc(F)cc(C(F)(F)F)c2)c2c(c1)C(=O)NC2c1cc(F)ccc1Cl (centres unmarked)
5. Cc1ccc(C(=O)Nc2cc(-c3ccc4ncnn4c3)cc3c2[C@H](c2cc(F)ccc2Cl)NC3=O)cc1C(F)(F)F (stereo in doubt)
6. O=C1N[C@H](c2cc(F)ccc2Cl)c2c(NC(=O)N3C[C@@H](O)c4cc(F)ccc43)cc(Cl)cc21 (single isomer, unassigned)

1: 5.00 to 6.00; 2: 4.00 to 5.00; 3: ≥ 7.00; 4: ≥ 7.00; 5: ≥ 7.00; 6: ≥ 7.00

----------
Please go through the items and note down their IC50.
biological target: H1047R PIK3CA enzyme (Homo sapiens, UniProt P42336, H1047R); test: ADP-Glo Biochemical PIK3CA Kinase Assay

Worked examples follow.
[
  {
    "COMPOUND": "O=C(Nc1cccc2c1C(C(=O)N1CCCCC1)NC2=O)c1cc(F)cc(C(F)(F)F)c1 (stereo not shown)",
    "IC50": "10 to 100 µM"
  },
  {
    "COMPOUND": "N#CCc1ccc(NC(=O)N2C[C@](O)(C(F)(F)F)c3cc(F)ccc32)c2c1C(=O)N[C@@H]2c1cc(F)ccc1Cl (single isomer, unassigned)",
    "IC50": "1 to 10 µM"
  },
  {
    "COMPOUND": "CC(C)(C)OC(=O)N1CC(n2cc(-c3cc(NC(=O)c4cc(F)cc(C(F)(F)F)c4)c4c(c3)C(=O)NC4c3cc(F)ccc3Cl)cn2)C1 (stereo not shown)",
    "IC50": "≤ 0.1 µM"
  },
  {
    "COMPOUND": "Nc1ccc(C(=O)Nc2cc(Br)cc3c2C(c2cc(F)ccc2Cl)NC3=O)cc1C(F)(F)F (stereo not shown)",
    "IC50": "1 to 10 µM"
  },
  {
    "COMPOUND": "O=C(Nc1cc(-c2ccc3ncnn3c2)nc2c1C(c1cc(F)ccc1Cl)NC2=O)c1cc(F)cc(C(F)(F)F)c1 (stereo not shown)",
    "IC50": "≤ 0.1 µM"
  },
  {
    "COMPOUND": "COC1CN(c2cc(NC(=O)c3cc(F)cc(C(F)(F)F)c3)c3c(c2)C(=O)NC3c2cc(F)ccc2Cl)C1 (stereo not shown)",
    "IC50": "0.1 to 0.5 µM"
  },
  {
    "COMPOUND": "Cc1ccccc1C1NC(=O)c2cccc(NC(=O)c3csc4ccncc34)c21 (stereo not shown)",
    "IC50": "1 to 10 µM"
  },
  {
    "COMPOUND": "O=C(Nc1cc(O[C@H]2CC[C@H]2O)cc2c1C(c1cc(F)ccc1Cl)NC2=O)c1cc(F)cc(C(F)(F)F)c1 (mixture of isomers)",
    "IC50": "≤ 0.1 µM"
  },
  {
    "COMPOUND": "Cc1ccccc1[C@H]1NC(=O)c2c(C(N)=O)ccc(NC(=O)c3cc(F)cc(C(F)(F)F)c3)c21",
    "IC50": "0.1 to 0.5 µM"
  },
  {
    "COMPOUND": "C[C@@H]([C@H]1C[C@H](O)CN1C(=O)Nc1cccc2c1[C@H](c1cc(F)ccc1Cl)NC2=O)C(F)(F)F (single isomer, unassigned)",
    "IC50": "10 to 100 µM"
  }
]

Parameter requested: IC50. Apply to each item below.
1. O=C(Nc1cc(C[n+]2ccccc2)cc2c1[C@H](c1cc(F)ccc1Cl)NC2=O)c1cc(F)cc(C(F)(F)F)c1 (racemic)
2. O=C1N[C@H](c2cc(F)ccc2Cl)c2c(NC(=O)N3C[C@](O)(C(F)F)c4cc(F)ccc43)cccc21 (single isomer, unassigned)
3. Cc1ccccc1C1NC(=O)c2cccc(NC(=O)N3CCc4ccc(F)cc43)c21 (stereo not shown)

["≤ 0.1 µM", "≤ 0.1 µM", "0.1 to 0.5 µM"]

----------
Please go through the items and note down their pIC50.
molecular target: H1047R PIK3CA enzyme (Homo sapiens, UniProt P42336, H1047R); assay: ADP-Glo Biochemical PIK3CA Kinase Assay
pIC50: −log10 of the molar value.

[
  {
    "COMPOUND": "COc1ccc(-c2cc(NC(=O)c3cc(F)cc(C(F)(F)F)c3)c3c(c2)C(=O)NC3c2cc(F)ccc2Cl)cn1 (stereo not drawn)",
    "pIC50": "≥ 7.00"
  }
]

Parameter requested: pIC50. Apply to each item below.
1. O=C(Nc1cc(-c2cnn3ncnc3c2)cc2c1[C@H](c1cc(F)ccc1Cl)NC2=O)c1cc(F)cc(C(F)(F)F)c1
2. O=C(Nc1cc(C2CS(=O)(=O)C2)cc2c1C(c1cc(F)ccc1Cl)NC2=O)c1cc(F)cc(C(F)(F)F)c1 (stereo not drawn)
3. Cc1ccccc1C1NC(=O)c2cccc(NC(=O)c3cc(F)n4ccccc34)c21 (stereo not drawn)
4. Nc1nc(NC(=O)c2cc(F)cc(C(F)(F)F)c2)c2c(n1)C(=O)NC2c1ccccc1Cl (stereo not drawn)
5. [2H]C([2H])(c1cc(NC(=O)c2cc(F)cc(C(F)(F)F)c2)c2c(c1)C(=O)NC2c1cc(F)ccc1Cl)S(C)(=O)=O (stereo not drawn)

["≥ 7.00", "≥ 7.00", "6.00 to 6.30", "6.00 to 6.30", "≥ 7.00"]

----------
biological target: H1047R PIK3CA enzyme (Homo sapiens, UniProt P42336, H1047R); experiment: ADP-Glo Biochemical PIK3CA Kinase Assay
QUANTITY MEASURED: IC50

[
  {
    "COMPOUND": "O=C1N[C@H](c2cc(F)ccc2Cl)c2c(NC(=O)N3C[C@@H](O)c4cc(F)ccc43)cc(-n3ccnn3)cc21 (single isomer, unassigned)",
    "TARGET OR SYSTEM": "H1047R PIK3CA enzyme (Homo sapiens, UniProt P42336, H1047R)",
    "RESULT": "1000 to 10000 nM"
  },
  {
    "COMPOUND": "CS(=O)(=O)C1CN(c2cc(NC(=O)c3cc(F)cc(C(F)(F)F)c3)c3c(n2)C(=O)NC3c2cc(F)ccc2Cl)C1 (stereo not shown)",
    "TARGET OR SYSTEM": "H1047R PIK3CA enzyme (Homo sapiens, UniProt P42336, H1047R)",
    "RESULT": "100 to 500 nM"
  },
  {
    "COMPOUND": "COc1ncc(-c2cc(NC(=O)c3cc(F)cc(C(F)(F)F)c3)c3c(c2)C(=O)NC3c2cc(F)ccc2Cl)cn1 (stereo not shown)",
    "TARGET OR SYSTEM": "H1047R PIK3CA enzyme (Homo sapiens, UniProt P42336, H1047R)",
    "RESULT": "≤ 100 nM"
  },
  {
    "COMPOUND": "C=Cc1ccc(NC(=O)c2nsc3ccccc23)c2c1C(=O)NC2c1ccccc1C (stereo not shown)",
    "TARGET OR SYSTEM": "H1047R PIK3CA enzyme (Homo sapiens, UniProt P42336, H1047R)",
    "RESULT": "100 to 500 nM"
  },
  {
    "COMPOUND": "CNc1cc(NC(=O)N2C[C@@](O)(C(F)(F)F)c3cc(F)ccc32)c2c(n1)C(=O)N[C@H]2c1cc(F)ccc1Cl (single isomer, unassigned)",
    "TARGET OR SYSTEM": "H1047R PIK3CA enzyme (Homo sapiens, UniProt P42336, H1047R)",
    "RESULT": "500 to 1000 nM"
  }
]

Parameter requested: IC50. Apply to each item below.
1. O=C(Nc1cc(C2CCCN2)cc2c1C(c1cc(F)ccc1Cl)NC2=O)c1cc(F)cc(C(F)(F)F)c1 (stereo not shown)
2. N#Cc1cccc([S+]([O-])Cc2cc(NC(=O)c3cc(F)cc(C(F)(F)F)c3)c3c(c2)C(=O)NC3c2cc(F)ccc2Cl)c1 (stereo not shown)
3. CC(=O)NCCOc1cc(NC(=O)c2cc(F)cc(C(F)(F)F)c2)c2c(c1)C(=O)NC2c1cc(F)ccc1Cl (racemic)
4. O=C1N[C@H](c2cc(F)ccc2Cl)c2c(NC(=O)N3C[C@](O)(C(F)(F)F)c4cc(F)ccc43)cc(-n3ccnn3)cc21 (single isomer, unassigned)
5. O=C1N[C@@H](c2cc(F)ccc2Cl)c2c(NC(=O)[C@H]3CCC[C@@H](OC(F)(F)F)C3)cccc21 (single isomer, unassigned)
6. O=C1N[C@H](c2cc(F)ccc2Cl)c2c(NC(=O)[C@@H]3CC[C@H](C(F)(F)F)C3)cccc21

≤ 100 nM
≤ 100 nM
100 to 500 nM
1000 to 10000 nM
10000 to 100000 nM
10000 to 100000 nM

Parameter requested: IC50. Apply to each item below.
1. O=C1NC(c2cc(F)ccc2Cl)c2c(NC(=O)C3(C(F)(F)F)CC3)cc(Br)cc21 (stereo not shown)
2. O=C(Nc1cc(-c2cc(F)c3ncnn3c2)cc2c1[C@H](c1cc(F)ccc1Cl)NC2=O)c1cc(F)cc(C(F)(F)F)c1

["10000 to 100000 nM", "≤ 100 nM"]

Parameter requested: IC50. Apply to each item below.
1. O=C(Nc1cc(-c2cscn2)cc2c1[C@@H](c1cc(F)ccc1Cl)NC2=O)c1cc(F)cc(C(F)(F)F)c1
2. Cn1ccc(-c2cc(NC(=O)c3cc(F)cc(C(F)(F)F)c3)c3c(c2)C(=O)N[C@@H]3c2cc(F)ccc2Cl)cc1=O (stereo in doubt)
3. O=C(Nc1cc(/N=C2\OC[C@@H]3CCCN23)cc2c1C(c1cc(F)ccc1Cl)NC2=O)c1cc(F)cc(C(F)(F)F)c1 (stereo partly shown)
4. O=C1N[C@@H](c2cc(F)ccc2Cl)c2c(NC(=O)N3C[C@@](O)(C(F)F)c4cc(F)ccc43)cccc21 (single isomer, unassigned)
5. N#CCc1cc(NC(=O)c2cc(F)cc(C(F)(F)F)c2)c2c(c1)C(=O)NC2c1cc(F)ccc1Cl (stereo not shown)
6. O=C1N[C@@H](c2cc(F)ccc2Cl)c2c(NC(=O)N3CCc4cc(F)ccc43)cc(-c3cnn(C(F)F)c3)cc21 (single isomer, unassigned)
7. O=C(Nc1cccc2c1C(c1cccc3c1NCC3)NC2=O)c1cc(F)cc(C(F)(F)F)c1 (stereo not shown)
8. O=C(Nc1cc(-c2cn3ncnc3cn2)cc2c1C(c1cc(F)ccc1Cl)NC2=O)c1cc(F)cc(Cl)c1 (stereo not shown)

1. 1000 to 10000 nM
2. ≤ 100 nM
3. 100 to 500 nM
4. 1000 to 10000 nM
5. ≤ 100 nM
6. ≤ 100 nM
7. 10000 to 100000 nM
8. 1000 to 10000 nM

Parameter requested: IC50. Apply to each item below.
1. Cc1ccccc1C1NC(=O)c2cccc(NC(=O)c3nn(C)c4ccccc34)c21 (stereo not shown)
2. O=C1NC(c2cc(F)ccc2Cl)c2c(NC(=O)N3CCc4ccccc43)cccc21 (stereo not shown)
3. O=C(Nc1cc(I)cc2c1C(c1cc(F)ccc1Cl)NC2=O)c1cc(F)cc(C(F)(F)F)c1 (stereo not shown)
4. Cc1nc2ccc(-c3cc(NC(=O)c4cc(F)cc(C(F)(F)F)c4)c4c(c3)C(=O)NC4c3cc(F)ccc3Cl)cc2o1 (stereo not shown)

["10000 to 100000 nM", "≤ 100 nM", "≤ 100 nM", "≤ 100 nM"]
